Origin of measurements: patent US10383881B2

Biological target: recombinant human GSK3α (Homo sapiens)
Sequence (P49840 whole entry): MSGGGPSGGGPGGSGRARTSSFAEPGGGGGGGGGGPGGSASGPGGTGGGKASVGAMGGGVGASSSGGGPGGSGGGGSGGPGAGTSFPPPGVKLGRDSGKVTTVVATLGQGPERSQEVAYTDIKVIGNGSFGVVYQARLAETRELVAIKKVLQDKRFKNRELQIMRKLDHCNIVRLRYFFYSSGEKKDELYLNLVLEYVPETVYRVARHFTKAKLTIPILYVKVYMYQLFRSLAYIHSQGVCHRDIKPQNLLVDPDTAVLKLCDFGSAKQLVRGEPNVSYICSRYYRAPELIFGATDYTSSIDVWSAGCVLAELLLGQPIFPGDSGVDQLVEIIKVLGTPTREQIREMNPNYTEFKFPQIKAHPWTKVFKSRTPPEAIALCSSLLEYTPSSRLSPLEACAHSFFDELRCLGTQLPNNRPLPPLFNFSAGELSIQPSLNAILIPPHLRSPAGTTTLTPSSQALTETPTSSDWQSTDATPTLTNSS
Experiment: In vitro enzymatic assay for inhibition of GSK3α (Kinase-Glo Max luminescence)
Conditions: 10 uM ATP, 0.1 mg/ml GSKtide, 30° C. for 40 minutes; read-out: Potency GSK-3alpha
Procedure: Enzymatic activities using recombinant human GSK3 using an in vitro enzymatic assay for inhibition GSK3α and GSK3β. The assay was performed using Kinase-Glo Max luminescence kinase assay kit (Promega). It measures kinase activity by quantitating the amount of ATP remaining in solution following a kinase reaction. […] After the enzymatic reaction, 50 μl of Kinase-Glo Max Luminescence kinase assay solution (Promega) was added to each reaction and incubate the plate for 15 minutes at room temperature. […]
REPORTED_PROPERTY: IC50 (nM)

{"SAMPLE_SMILES": "O=C1NCC(c2cnc3ccccn23)=C1c1cn2c3c(cc(F)cc13)CN(C(=O)N1CCCCC1)CC2", "REPORTED_PROPERTY": "IC50", "QUANTITY_UNIT": "nM", "EXPERIMENTAL_RESULT": 8.2}
{"SAMPLE_SMILES": "O=C1NCC(c2cn3c4c(cc(F)cc24)CN(C(=O)N2CCCCC2)CC3)=C1c1cnc2ccccn12", "REPORTED_PROPERTY": "IC50", "QUANTITY_UNIT": "nM", "EXPERIMENTAL_RESULT": 15.6}

###

target: recombinant human GSK3β (Homo sapiens); experiment: In vitro enzymatic assay for inhibition of GSK3β (Kinase-Glo Max luminescence); conditions: 10 uM ATP, 0.1 mg/ml GSKtide, 30° C. for 40 minutes; read-out: Potency GSK-3beta
Sequence (P49841 whole entry): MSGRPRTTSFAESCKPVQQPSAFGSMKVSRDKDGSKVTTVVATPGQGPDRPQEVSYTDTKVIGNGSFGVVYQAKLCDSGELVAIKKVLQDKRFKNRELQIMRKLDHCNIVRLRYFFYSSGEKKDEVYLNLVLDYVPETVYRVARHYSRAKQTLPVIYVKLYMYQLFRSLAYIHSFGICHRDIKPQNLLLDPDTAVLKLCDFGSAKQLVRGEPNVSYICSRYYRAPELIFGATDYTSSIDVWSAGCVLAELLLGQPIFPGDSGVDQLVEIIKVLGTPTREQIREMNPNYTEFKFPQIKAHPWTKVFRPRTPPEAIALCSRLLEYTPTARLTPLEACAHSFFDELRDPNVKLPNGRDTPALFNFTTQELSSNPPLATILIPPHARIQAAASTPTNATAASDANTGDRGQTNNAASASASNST
pIC50: −log10 of the molar value.

{"MOLECULE": "O=C1NCC(c2cnc3ccccn23)=C1c1cn2c3c(cc(F)cc13)CN(C(=O)N1CCCCC1)CC2 [Compound I-49]", "SUBJECT_OF_TEST": "recombinant human GSK3β (Homo sapiens)", "pIC50": 8.08}
{"MOLECULE": "O=C1NCC(c2cn3c4c(cc(F)cc24)CN(C(=O)N2CCCCC2)CC3)=C1c1cnc2ccccn12 [Compound I-4]", "SUBJECT_OF_TEST": "recombinant human GSK3β (Homo sapiens)", "pIC50": 7.66}
